Origin of values: a melting point compilation (Tetko et al.; mined from patent text by program, amines drawn as free bases though some values may be those of a salt)

I'd appreciate it if you could supply melting point values for the items below.

Briefly, melting point measured for CC(C)(C)COS(=O)(=O)c1ccc(Oc2c(Cl)cccc2[N+](=O)[O-])cc1 : 111 to 112 °C

Entry O=C1C2=C(Nc3ccccc3C2)c2ccccc21 — recorded melting point = > 300 °C

Notebook: Cc1ccc(C(=O)Nc2cc(-n3cncc3C)cc(C(F)(F)F)c2)cc1Nc1nccc(-c2cccnc2)n1 , melting point read as 231 to 233 °C

Data point: CCOC(=O)C=C1c2ccccc2CC(=O)c2ccccc21 ; melting point = 56 to 62 °C

Documented melting point of CCCc1c(C(=O)NCc2ccc3cc(OCC(=O)OC)ccc3c2)cnn1-c1ccccc1 : 145 to 146 °C

----------
Readout: melting point

Query COC(=O)c1c(Cl)cc(Cl)cc1NC(=O)CSc1ccccc1Cl yields melting point of 98 to 99 °C

response.value for C=C(C)C(=O)NCC(C)OC(=O)C(Br)(Br)Br (stereo unspecified) (field: melting point) = 104 to 105 °C

The reported value for CN(C)Cc1cccc(OCCCNc2nc(N)n[nH]2)c1 in terms of melting point is 92 to 93 °C

Summary for this molecule, CC(C(=O)Oc1cc(=O)n(-c2ccccc2)c2ncccc12)c1ccccc1 (stereo unspecified) : melting point is 166 to 168 °C

Item: S=C(NC1CCCCC1)N1CCc2[nH]cnc2C1 | melting point: 183 °C

melting point measured on CN(C)S(=O)(=O)c1cc2cc(C(=O)O)oc2c(Cl)c1Cl = 242 to 245 °C

Recorded result, CSc1c(CC(=O)O)ccc2c3ccccc3n(Cc3ccc(F)cc3)c12 , melting point: 156 to 157 °C

The value of melting point measured for the molecule CCN(CC)CCOCCc1ccc2sc(C(N)=O)cc2c1 turned out to be 82 to 84 °C

Value of melting point reported for the molecule CSc1ncc(C2=NCC(C)(C)O2)cc1Cl is 113 to 115 °C

melting point for Nc1ccc(O)c(C(=O)CCC(=O)O)c1 is 158 to 160 °C

Short answer for O=C/C=C/C=C/c1ccc(OCC(F)(F)C(F)F)cc1 : melting point was 53 to 55 °C

----------
Readout: melting point

Lab note: measured melting point of COC=C(Oc1cccc(-c2ccc(Cl)cc2)n1)C(=O)OC was 50 to 54 °C

Reported melting point for CC(C)=NOCc1nc2c(N)nc3cccnc3c2n1CC(C)(C)O was 198 to 200 °C

response.value for CCOC(=O)c1cc(-c2ccc(-c3ccco3)cc2)n(-c2ccc(S(C)(=O)=O)c(F)c2)n1 (field: melting point) = 172 °C

melting point reported for this molecule Cc1ccc(Cn2ccc3cc(Br)ccc32)cc1 : 56 to 57 °C

So, CCOCc1nc2c(N)nc3cc(-c4cccnc4)ccc3c2n1C[C@@H]1COC(C)(C)O1 ? Its melting point was 155 to 156 °C

Record Cc1oc(-c2ccccc2)nc1CCOc1ccc(Cn2cc(CCC(=O)O)c(-c3ccccc3)c2)cc1 , field melting point: 147 to 148 °C

COCC(=O)Nc1cccc(-n2nc(OC)c(=O)n(Cc3ccc(Cl)cc3)c2=O)c1 has a reported melting point of 143 °C

The recorded melting point for entry CC(C)=CCn1c(C)cnc1[N+](=O)[O-] equals 78 to 79 °C

Per the records, this molecule ( CCC(Oc1cc(N)c(Cl)cc1C(=O)NCCN(CC)CC)C(C)=O (stereo not given) ) has melting point equal to 75 to 78 °C

get_value(item= CC1(C)CC(c2ccccn2)c2ccccc2O1 (stereo not given) , readout=melting point) returns 99 to 101 °C

// sample COc1cc(OC)c2c(C)c(CCN3CCN(c4ccccc4F)CC3)c(=O)oc2c1 , its melting point was 152 to 153 °C

# melting point (molecule: C(#Cc1ccccn1)CCN1CC=C(c2ccccc2)CC1 ) is 87.5 to 88.5 °C

Briefly, melting point measured for COc1ccc(C2NC(=S)NC(C)=C2C(C)=O)cc1 (racemic) : 175 °C

Notebook: CCCCCCCCCCCCCCOc1ccccc1NC(=O)c1cc(Sc2nnnn2-c2cccc(C(=O)OCC)c2)c2ccccc2c1O , melting point read as 88 to 90 °C

Looking up O=C(OCc1ccccc1)C1(NS(=O)(=O)c2ccc(Oc3ccc(F)cc3)cc2)CCCC1 , I see its melting point listed as 97 to 97.5 °C

Briefly, melting point measured for Cc1cc(Oc2c(Cl)cc(C(F)(F)F)cc2Cl)nn1C(=O)NOCc1ccccc1 : 98 to 100 °C

The recorded melting point for entry O=C(O)c1cn2c(-c3ccccc3)ncc2c2ccccc12 equals 187 to 190 °C

Record C=CCOc1ccc(C=CC(=O)c2c(O)cc(OC)cc2OC)cc1 , field melting point: 112 °C

Record O=C(O)c1ccc(S(=O)(=O)Cc2c(O[C@H](Cn3ccnc3)c3ccccc3)ccc3c2CCCC3=O)cc1 , field melting point: 250 °C

melting point for C=CC(C)c1cc(C)c2c(c1)C(=O)CC2 (stereo not given) is 88 to 92 °C
